# subject.of.test: T1, human 4-1BB expressed on cells (human, UniProt Q07011 24-255)
# T1 construct: whole, on cells; also called CHO-K1/hu4-1BB; cell surface human 4-1BB
# test.details: flow cytometry on CHO-K1/hu4-1BB cells, anti-human Fc-Alexa Fluor 633
Known EC50 of a selection of binders

binder	readout.units	EC50
VV02-1LP-263 huNb_3_3 (Fc fusion, detection by anti-human Fc; not shown: Fc part, implied only by the anti-human Fc secondary antibody) VHH: QVQLVESGGGLVQPGGSLRLSCAASGFTFSSSAMSWARQAPGKGFEWVSGIYSGGSTYYTESVKDRFTISRDNAKNSVYLQMNSLKPEDTAVYYCATWGTLRFGVWAEYDHWGQGTQVTVSS	nM	0.12
VV02-1SP (1)-73 huNb_2_3 (Fc fusion, detection by anti-human Fc; not shown: Fc part, implied only by the anti-human Fc secondary antibody) VHH: EVQLVESGGGLVQPGGSLRLSCAVSGFTFSSSAMSWARQAPGKEFEWVSSIYSSGKTYYVESVKGRFTISRDNAKNTVYLQMSSLRPEDTAVYYCATWKTLRVGVWDESDYWGQGTQVTVSS	nM	0.49

Reference source for all entries: patent US20240383993A1
